Test: NCI Yeast Anticancer Drug Screen. Data for the rad50 strain (AID 155);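 further: 0% = growth of vehicle-only cultures of the same strain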
Settings: S. cerevisiae rad50 strain growth inhibition; at 50.0 µM; active compounds read high
About 79,000 compounds went through this panel and 15% of them were active in at least one assay; those are over-represented in the sample as a whole.
Listed compounds paired with reported growth inhibition
Give the quantity in %, number only.

Consider the following illustrative entries.
CCCCCN(CCCCC)C(C)C(=O)c1ccc2cc(Br)c3ccccc3c2c1 (stereo unspecified)
93.9
Cc1ccccc1-n1c(N)c(-c2nc3ccccc3[nH]2)sc1=S
81.2
COc1ccc2c(c1)C(O)=C(CC=C(C)C)C(=O)C2=O
26.8
CN1C/C(=C\c2ccc(Cl)cc2)C(=O)/C(=C/c2ccc(Cl)cc2)C1
87.2
CCCCCCCCCCCC(=O)NC(CCC(=O)O)C(=O)O (stereo unspecified)
-6.05

# input for lookup
Input: Give the measured growth inhibition for Fc1ccc(NC(=S)SCc2ccccc2)cc1
Output: 68.3

====

Assay: NCI Yeast Anticancer Drug Screen. Data for the sgs1 mgt1 strain (AID 161);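 further: 0% = growth of cultures given vehicle only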
Conditions: S. cerevisiae sgs1 mgt1 strain, at 5.0 µM (retest, dose inferred, filed as 0.5), active compounds read high
The panel holds about 79,000 compounds, 15% with a hit somewhere; the sample as a whole holds those more often.
Quantity measured: growth inhibition (%)
Give the quantity in %, number only.

CN(C)c1ccc(C2CC(C)(N3CCCC3)Oc3cc4c(cc32)OCO4)cc1 (stereo unspecified)
-10

Input: Give the measured growth inhibition for BrCC(Br)Cc1ccc2c(c1)OCO2 (stereo unspecified)
Output: 3

Input: Give the measured growth inhibition for O=[N+]([O-])c1ccccc1NCCO
Output: -2

Input: Give the measured growth inhibition for Clc1cc2c(c3ncccc13)OCN(CCc1ccccc1)C2
Output: 2

Input: Give the measured growth inhibition for CCOC(=O)C1=C(C)NC(C)=C(C(=O)OCC)C1c1ccnc2ccccc12
Output: -26

Input: Give the measured growth inhibition for CSC1=Nc2ccccc2SC(c2ccccc2)C1c1ccccc1 (stereo unspecified)
Output: 6

====

Test: NCI Yeast Anticancer Drug Screen. Data for the rad50 strain (AID 155);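 further: 0% = growth of vehicle-only cultures of the same strain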
Conditions: S. cerevisiae rad50 strain growth inhibition; at 5.0 µM (retest, dose inferred, filed as 0.5); active compounds read high
Compounds without any hit were thinned out: in the full panel of roughly 79,000, 15% have a hit.
Quantity measured: growth inhibition (%)
Give the quantity in %, number only.

CCOC(=O)/C(=C\N1C(=O)/C(=C\C(C)=C\c2ccccc2)SC1=S)C(=O)c1ccccc1
-8
CC(C)c1ccc2c(c1)CCC1C(C)(CNC(=O)S)CCCC21C.[Zn+2] (stereo unspecified)
9
Cn1c(=O)c2c(nc([N+](=O)[O-])n2C)n(C)c1=O
2
O=C(CC(C(=O)O)c1c[nH]c2ccccc12)c1ccccc1 (stereo unspecified)
-2

Input: Give the measured growth inhibition for O=C(N/C(=C\c1ccc([N+](=O)[O-])cc1)c1nc2ccccc2s1)c1ccccc1
Output: 3

Input: Give the measured growth inhibition for COC(=O)C1(Cc2ccc3c(c2)CCC3)Cc2ccc3c(c2C1O)CCC3 (stereo unspecified)
Output: -2

====

Test: NCI Yeast Anticancer Drug Screen. Data for the cln2 rad14 strain (AID 165);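 further: 0% = growth equal to vehicle treated cultures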
Conditions: S. cerevisiae cln2 rad14 strain, at 50.0 µM, active compounds read high
Description: Growth inhibition of yeast strains with defined genetic alterations is measured as a screen for potential anti-cancer activity. Selected strains with alterations in DNA damage repair or cell cycle control were exposed to compounds and growth inhibition was measured relative to vehicle treated controls. The strain used in this assay is cln2 rad14
About 79,000 compounds went through this panel and 15% of them were active in at least one assay; those are over-represented in the sample as a whole.
Everything with growth inhibition lower than 30% is 0 (no); everything else, including exactly 30%, is 1 (yes).

Consider the following illustrative entries.
O=C1CCCCO1
0 (no)
Cn1ncc2c(Nc3ccccc3)nc(Nc3ccccc3)nc21
1 (yes)
O=C(C(Cl)Cl)N(O)c1ccccc1OCc1ccccc1
1 (yes)
NC(=S)n1nc(-c2ccccc2)c(N=Nc2ccccc2Cl)c1-c1ccccc1
1 (yes)
Nc1cc2c(cc1/C=C(\C(=O)O)c1ccccc1)OCO2
0 (no)

Input: Does growth inhibition meet or surpass 30% for Cc1cc(C(O)(c2cc(C)c(O)c(C(=O)O)c2)c2cc(C)c(O)c(C(=O)O)c2)cc(C(=O)O)c1O ?
Output: 0 (no)

Input: Does growth inhibition meet or surpass 30% for COc1ccc(SSc2ccc(OC)n[n+]2[O-])[n+]([O-])n1 ?
Output: 1 (yes)

Input: Does growth inhibition meet or surpass 30% for CCOC(=O)CSc1c(C(=O)OCC)c(=O)n(-c2ccccc2)c(=S)n1-c1ccccc1 ?
Output: 1 (yes)

Input: Does growth inhibition meet or surpass 30% for COc1ccc(C2C3=C(CCCC3=O)Oc3cc4c(cc32)OCO4)c(OC)c1 (stereo unspecified) ?
Output: 0 (no)

Input: Does growth inhibition meet or surpass 30% for O=c1cccccc1[O-].O=c1cccccc1[O-].O=c1cccccc1[O-].[La+3] ?
Output: 1 (yes)

Input: Does growth inhibition meet or surpass 30% for O=C1/C(=C/c2ccccc2)CN(C(=O)C(F)(F)F)C/C1=C\c1ccccc1 ?
Output: 1 (yes)

Hello, the source for this data is PubChem BioAssay (NCI), in case you need it.
